test: yeast display, Sf9 membrane polyspecificity reagent, FACS + sequencing; frameworks hold sequencing errors
TEST READOUT: polyreactivity (PSR sort gate)

Use these answered entries as a reference point.
INSERT INTO assay_data (residue_codes, test_readout, endpoint_result) VALUES
  ('QVQLVESGGGLVQAGGSLRLSCAASGFTLSYYAMGWYRQAPRKERELVASISAIGGITYYADSVKGRFTISRDNAKNTVYLQMNSLKPEDSAVYYCIAGKRFTPYDYWGQGTQVTVSS', 'polyreactivity (PSR sort gate)', 'high polyreactivity'),
  ('QVQLVESGGGLVQAGGSLSLSCAASGFTYRLYTMGWYRQAPGKERELVAGISTSGGSTYYADSVKGRFTISRDNAKHTVYLQMNSLKPEDTAVYYCAAQAFTSYDYWGQGTQVTVSS', 'polyreactivity (PSR sort gate)', 'high polyreactivity'),
  ('QVQLVESGGGLVQAGGSLRLSCAASGSIFGYAMGWYRQAPGKERELVAAISFSGVSTYYADSVKGRFTISRDNAKNTVYLQMNSLKPDDTAVYYCATDRFYYRTGYDPYYYWGQGTQVTVSS', 'polyreactivity (PSR sort gate)', 'low polyreactivity'),
  ('QVQLVESGGGLVQAGGSLRLSCAASGSTFWYYAMGWYRQAPGKERELVADITISGGSTYYSDSVKGRFTISRDNAKNTVYLQMNSLKPEDTAVYYCATDDTHRVGWFDYWGQGTQVTVSS', 'polyreactivity (PSR sort gate)', 'low polyreactivity'),
  ('QVQLVESGGGLVQAGGSLRLSCSASGSTFGRNSMGRYRQAPGKEREVVAAISWRSTRTYYADSVKGRFTISRDHAKNTVDLQMNSLKPEDNAGYYCAVYYFYPSTNCYHYDYWGQGTQVTVSS', 'polyreactivity (PSR sort gate)', 'high polyreactivity'),
  ('QVQLVESGGGLVQAGGSLRLSCADSGRTFYQNAKGWYRQAPGKEREFVAAISWSSGSTYYADSVKGRFTISRDYAKNTVYLQMNSLKPEDTAVYYCAAYTSFPYIWYGYWGQGTQVTVSS', 'polyreactivity (PSR sort gate)', 'high polyreactivity'),
  ('QVQLVESGGGLVQAGGRLRLSCAASGSIFDRYAMGWYRQAPGKERELVAAITRSGGSTYYADSVKGRFTISRDNAKNTVYLQMNSLKPEDTAVYYCNKVYPPRSIPYDFCGQGTQVTVSS', 'polyreactivity (PSR sort gate)', 'low polyreactivity'),
  ('QVQLVESGGGLVQAGGSLRLSCAASGSTLTSNAMGWYRQAPGKERELVAAIRSGGSTNYADSVKGRFTISRDNAKNTVYLQMNSLKPEDTAVYYCNKDFLWQGYGYSRVSYDYWGQGTQVTVSS', 'polyreactivity (PSR sort gate)', 'low polyreactivity'),
  ('QVQLVESGGGLVQAGGSRRISWAASGSTFPWNVMGWYRQAPGKERELVAAISSSDGRTYYADSVKGRFTISRDNAKNTVYLQMNSLNPDDTAVDYCAASVAYYWYRTWLFDYDYWGQGTEVTVSS', 'polyreactivity (PSR sort gate)', 'high polyreactivity'),
  ('QVQLVESGGGLVQAGGSLRLSCAASGFTFQGNVMGWYRQAPGKERELVAASTGGGGDTYSADSVKGRFTISRDNAKNTVYLQMNSLKPEDTAVYYCAAEVAPEWYWPWFFDYADGYWGQGTQVTLSS', 'polyreactivity (PSR sort gate)', 'high polyreactivity');

Would you mind telling me what polyreactivity (PSR sort gate) value was observed for QVQLVESGGGLVQAGGSLRLSCAASGFIFQRYAMGWYRQAPGKERELVAAISSSGGRTSYADSVKGRFTISRDNAKNTVYLQMNSLKPEDTAVYYCAAYPQGRWYVVWSGDYWGQGTQVTVSS ?
high polyreactivity
